Each recorded value in this set is attributed to patent US20210388087A1.

- assay target: T1, CD3 epsilon homodimer protein (UniProt P07766 23-126)
- T1 construct: also called CD3 (CD3 epsilon)
- T1 sequence (P07766 23-126): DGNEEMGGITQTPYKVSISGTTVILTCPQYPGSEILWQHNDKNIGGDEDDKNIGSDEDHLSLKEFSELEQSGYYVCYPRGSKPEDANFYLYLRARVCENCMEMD
- protocol: SPR Biacore T200, CD3e homodimer on chip, vs unaltered GLS3000 antibody
Overview of reported ratio of amounts bound (Z=Y/X) across a group of binders:
Reply: number alone, nothing else.

Query :: What value of measured ratio of amounts bound (Z=Y/X) is listed for GLS3000 V27cE (antibody, name in Kabat numbering, V domains shown, one-arm IgG as m2) VH: QVQLVESGGGVVQPGRSLRLSCAASGFTFSNAWMHWVRQAPGKGLEWVAQIKAKSNNYATYYAESVKGRFTISRDDSKNSLYLQMNSLKTEDTAVYYCRYVHYGAYYGVDAWGQGTTVTVSS VL: DIVMTQSPLSLPVTPGEPASISCRSSQSLEHSNRNTYLHWYQQKPGQAPRLLIYKVSNRFSGVPDRFSGSGSGTDFTLKISRVEAEDVGVYYCGQGTQVPYTFGQGTKLEIK ?
Result :: 0.61

Query :: Query: ratio of amounts bound (Z=Y/X); subject: GLS3000 S56F (antibody, name in Kabat numbering, V domains shown, one-arm IgG as m2) VH: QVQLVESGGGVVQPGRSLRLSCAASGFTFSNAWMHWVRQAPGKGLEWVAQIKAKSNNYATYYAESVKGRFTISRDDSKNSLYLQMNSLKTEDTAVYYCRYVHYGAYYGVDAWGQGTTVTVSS VL: DIVMTQSPLSLPVTPGEPASISCRSSQSLVHSNRNTYLHWYQQKPGQAPRLLIYKVSNRFFGVPDRFSGSGSGTDFTLKISRVEAEDVGVYYCGQGTQVPYTFGQGTKLEIK
Result :: 1.32

Query :: # get_value(readout='ratio of amounts bound (Z=Y/X)', item= GLS3000 H34Y (antibody, name in Kabat numbering, V domains shown, one-arm IgG as m2) VH: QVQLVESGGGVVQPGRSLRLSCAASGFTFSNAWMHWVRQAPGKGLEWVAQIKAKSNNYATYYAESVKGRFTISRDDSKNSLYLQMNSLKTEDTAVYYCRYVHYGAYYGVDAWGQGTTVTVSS VL: DIVMTQSPLSLPVTPGEPASISCRSSQSLVHSNRNTYLYWYQQKPGQAPRLLIYKVSNRFSGVPDRFSGSGSGTDFTLKISRVEAEDVGVYYCGQGTQVPYTFGQGTKLEIK )
Result :: 0.59
